Values from ChEMBL document CHEMBL1681733

Recorded measurements of bioavailability, one per entry
procedure_details: Oral bioavailability in rat at 2 mg/kg
Format: ADME, organism-based
assay_context: in vivo
Provide the reading as a plain figure in %.

Here is how some compounds turned out for bioavailability.
>>> number("CN([C@H]1CC[C@H]([C@H](N)Cc2cc(F)ccc2F)CC1)S(=O)(=O)c1cccc(C(N)=O)c1")
13
>>> number("Cc1ccc(N2CCC([C@H](N)Cc3cc(F)ccc3F)CC2)c(C)n1")
22
>>> number("NC(=O)[C@@H]1CCCN([C@H]2CC[C@H]([C@H](N)Cc3cc(F)ccc3F)CC2)C1")
24
>>> number("CN([C@H]1CC[C@H]([C@H](N)Cc2cc(F)ccc2F)CC1)S(=O)(=O)c1ccc(-c2csnn2)cc1")
25
>>> number("CC(=O)N(C)[C@H]1CC[C@H]([C@H](N)Cc2cc(F)ccc2F)CC1")
9.7
>>> number("N[C@H](Cc1cc(F)ccc1F)C1CCN(c2cncnc2)CC1")
4.5

Now let's try a different one.
**Query** Return bioavailability (reported value) for this compound: Cc1noc(C)c1S(=O)(=O)N(C)[C@H]1CC[C@H]([C@H](N)Cc2cc(F)ccc2F)CC1
**Result** 2.2

###

study_system: Dipeptidyl peptidase 2 (Homo sapiens)
property_label: pIC50
The scale used: pIC50 is minus the common logarithm of the concentration in molar units.

Here is how some compounds turned out for pIC50.
>>> number("CN(Cc1ccc(C#N)cc1)[C@H]1CC[C@H]([C@H](N)Cc2cc(F)ccc2F)CC1")
4.92
>>> number("Cc1noc(C)c1S(=O)(=O)N(C)[C@H]1CC[C@H]([C@H](N)Cc2cc(F)ccc2F)CC1")
4.20
>>> number("Cn1ccc(C(=O)N(C)[C@H]2CC[C@H]([C@H](N)Cc3cc(F)ccc3F)CC2)n1")
4.68
>>> number("CS(=O)(=O)N(Cc1ccccc1)[C@H]1CC[C@H]([C@H](N)Cc2cc(F)ccc2F)CC1")
4.96
>>> number("Cc1noc(C)c1S(=O)(=O)N(Cc1ccccc1)[C@H]1CC[C@H]([C@H](N)Cc2cc(F)ccc2F)CC1")
5.00

**Query** Quote Dipeptidyl peptidase 2 (Homo sapiens) pIC50 for entry CC(=O)N(C)[C@H]1CC[C@H]([C@H](N)Cc2cc(F)ccc2F)CC1 .
**Result** 4.08

**Query** Quote Dipeptidyl peptidase 2 (Homo sapiens) pIC50 for entry N[C@H](Cc1cc(F)ccc1F)[C@H]1CC[C@H](N(CCCC(F)(F)F)Cc2ccccc2)CC1 (mixture of isomers) .
**Result** 4.64

**Query** Quote Dipeptidyl peptidase 2 (Homo sapiens) pIC50 for entry CS(=O)(=O)N(CCCC(F)(F)F)[C@H]1CC[C@H]([C@H](N)Cc2cc(F)ccc2F)CC1 .
**Result** 4.07

**Query** Quote Dipeptidyl peptidase 2 (Homo sapiens) pIC50 for entry CC(=O)N(Cc1ccccc1)[C@H]1CC[C@H]([C@H](N)Cc2cc(F)ccc2F)CC1 .
**Result** 4.77

###

pIC50: −log10 of the molar value.
These compounds were tested on Dipeptidyl peptidase 8 (Homo sapiens); pIC50 is the recorded read-out.
Sequence (Q6V1X1 whole entry): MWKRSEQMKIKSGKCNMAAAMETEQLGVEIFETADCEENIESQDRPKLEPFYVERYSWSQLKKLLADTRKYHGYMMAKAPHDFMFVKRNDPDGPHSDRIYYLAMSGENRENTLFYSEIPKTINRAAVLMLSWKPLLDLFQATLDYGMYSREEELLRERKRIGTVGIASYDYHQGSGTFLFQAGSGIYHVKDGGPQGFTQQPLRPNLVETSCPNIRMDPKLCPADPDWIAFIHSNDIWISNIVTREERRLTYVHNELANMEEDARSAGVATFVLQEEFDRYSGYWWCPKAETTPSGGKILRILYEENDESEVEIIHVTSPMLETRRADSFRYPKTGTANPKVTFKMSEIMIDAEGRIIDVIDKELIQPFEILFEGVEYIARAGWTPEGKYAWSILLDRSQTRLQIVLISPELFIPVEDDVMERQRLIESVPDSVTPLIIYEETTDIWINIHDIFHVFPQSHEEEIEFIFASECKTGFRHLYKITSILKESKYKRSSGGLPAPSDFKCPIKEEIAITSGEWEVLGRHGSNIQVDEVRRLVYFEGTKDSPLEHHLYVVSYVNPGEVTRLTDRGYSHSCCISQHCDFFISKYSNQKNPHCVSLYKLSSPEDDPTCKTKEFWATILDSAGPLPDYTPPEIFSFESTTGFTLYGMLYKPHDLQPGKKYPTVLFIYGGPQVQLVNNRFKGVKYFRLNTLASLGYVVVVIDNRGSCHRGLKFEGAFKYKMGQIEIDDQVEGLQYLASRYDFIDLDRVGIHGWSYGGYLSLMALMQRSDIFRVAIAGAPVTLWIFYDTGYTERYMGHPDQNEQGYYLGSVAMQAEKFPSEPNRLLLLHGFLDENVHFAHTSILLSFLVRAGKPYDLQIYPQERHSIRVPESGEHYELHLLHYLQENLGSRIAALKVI

>>> result("CN([C@H]1CC[C@H]([C@H](N)Cc2cc(F)ccc2F)CC1)S(=O)(=O)c1ccc(OC(F)(F)F)cc1")
"< 4.00"
>>> result("CN(C(=O)c1ccno1)[C@H]1CC[C@H]([C@H](N)Cc2cc(F)ccc2F)CC1")
"< 4.00"

Now let's try a different one.
**Query** Return pIC50 (reported value) for this compound: Cc1noc(C)c1S(=O)(=O)N(CCCC(F)(F)F)[C@H]1CC[C@H]([C@H](N)Cc2cc(F)ccc2F)CC1
**Result** < 4.00
